test system: SW48; assay: cells; format: functional, cell-based; settings: Homo sapiens;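 further: growth inhibition of SW48 cells, read out with a cell viability assay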
Description: SANGER: Inhibition of human SW48 cell growth in a cell viability assay.
metric.name: IC50 (nM)
Give the number; nM is assumed, so skip it.

## Task Recorded IC50 of CO[C@@H]1[C@H](N(C)C(=O)c2ccccc2)C[C@H]2O[C@]1(C)n1c3ccccc3c3c4c(c5c6ccccc6n2c5c31)C(=O)NC4 , please.
## Result 267

## Task Also NC(=O)Nc1cc(-c2cccc(F)c2)sc1C(=O)N[C@H]1CCCNC1 , if possible.
## Result 792

###

Kindly state IC50 for each of the entries shown.
tested on: TE-15; experiment: cells; assay type: functional, cell-based, Homo sapiens; settings: Homo sapiens, TE-15;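 further: cell viability readout of growth inhibition in TE-15 cells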
Description: SANGER: Inhibition of human TE-15 cell growth in a cell viability assay.
Give the number; nM is assumed, so skip it.

## Task Recorded IC50 of CCCCCCCCCCCC1=C(O)C(=O)C=C(O)C1=O [EMBELIN] , please.
## Result 7240

## Task Also COc1ccc(-c2cc3nccn3c(Nc3ncccc3C(N)=O)n2)cc1OC , if possible.
## Result 1280

## Task Also C=CC(=O)N1CCCC(Nc2nc(Nc3ccc(N(C)C(=O)CC)cc3)nc3[nH]cnc23)C1 (configuration not stated) , if possible.
## Result 1850

## Task Also Cc1cc(N2CCOCC2)cc2[nH]c(-c3c(NC[C@@H](O)c4cccc(Cl)c4)cc[nH]c3=O)nc12 , if possible.
## Result 813

###

system: TUR; experiment: cells; type: functional, cell-based, Homo sapiens; conditions: Homo sapiens, TUR
Description: SANGER: Inhibition of human TUR cell growth in a cell viability assay.
metric.name: IC50

## Task Recorded IC50 of O=S(=O)(O)c1ccc2cc(/N=N/c3cc(S(=O)(=O)O)c4cccnc4c3O)ccc2c1 , please.
## Result > 16 µM

## Task Also COC(=O)[C@H](CCSC)NC(=O)c1ccc(NC[C@@H](N)CS)cc1-c1ccccc1 , if possible.
## Result > 1.02 µM

## Task Also CC(C)C[C@H](NC(=O)[C@H](Cc1ccccc1)NC(=O)c1cnccn1)B(O)O , if possible.
## Result > 0.02 µM

## Task Also C=CC(=O)N1CCCC(Nc2nc(Nc3ccc(N(C)C(=O)CC)cc3)nc3[nH]cnc23)C1 (stereo unspecified) , if possible.
## Result > 10.2 µM

## Task Also COc1ccc(N(C(=O)Oc2c(C)cccc2C)c2ccnc(Nc3ccc(N4CCN(C)CC4)cc3)n2)c(OC)c1 , if possible.
## Result > 5.12 µM

## Task Also Cc1cc(N2CCOCC2)cc2[nH]c(-c3c(NC[C@@H](O)c4cccc(Cl)c4)cc[nH]c3=O)nc12 , if possible.
## Result > 5.12 µM

###

system: NCI-H2227; assay: cells; type: functional, cell-based; details: Homo sapiens
Description: SANGER: Inhibition of human NCI-H2227 cell growth in a cell viability assay.
pIC50: −log10 of the molar value.
metric.name: pIC50

## Task Query pIC50 on NCI-H2227 for Nc1ccccc1NC(=O)c1ccc(CNC(=O)OCc2cccnc2)cc1 [ENTINOSTAT]
## Result 5.52

## Task Also C/C(=C\c1csc(C)n1)[C@@H]1C[C@@H]2O[C@]2(C)CCC[C@H](C)[C@H](O)[C@@H](C)C(=O)C(C)(C)[C@@H](O)CC(=O)O1 [PATUPILONE] , if possible.
## Result < 7.49

## Task Also CC(C)C[C@H](NC(=O)[C@H](Cc1ccccc1)NC(=O)c1cnccn1)B(O)O [BORTEZOMIB] , if possible.
## Result < 7.70
